# STUDY_TARGET: T1, FcRL2, overexpressed on 3T3 cells (UniProt Q96LA5 20-508, limits assumed)
# T1 construct: whole, on cells
# T1 sequence (looked up): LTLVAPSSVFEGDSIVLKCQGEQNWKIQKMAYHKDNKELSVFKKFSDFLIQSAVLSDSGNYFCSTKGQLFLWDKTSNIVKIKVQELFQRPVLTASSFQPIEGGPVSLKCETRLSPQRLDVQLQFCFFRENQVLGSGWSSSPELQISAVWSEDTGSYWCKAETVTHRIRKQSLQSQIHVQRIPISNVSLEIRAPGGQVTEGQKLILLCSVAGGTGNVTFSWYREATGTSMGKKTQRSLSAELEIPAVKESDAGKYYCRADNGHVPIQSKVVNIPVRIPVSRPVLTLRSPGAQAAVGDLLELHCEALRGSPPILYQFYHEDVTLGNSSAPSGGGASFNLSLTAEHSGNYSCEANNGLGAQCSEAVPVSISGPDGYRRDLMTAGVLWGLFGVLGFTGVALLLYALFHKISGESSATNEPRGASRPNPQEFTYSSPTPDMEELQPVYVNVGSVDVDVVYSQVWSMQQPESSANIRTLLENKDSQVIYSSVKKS
# RUN_DESCRIPTION: phage clone on 3T3-FcRL2 cells
PROPERTY_LABEL: binding result

ET200-007 (scFv, screened as phage clone; entry is VL-linker-VH-His tag-HA tag) scFv: SYVLTQPLSVSVAPGKTARITCGGNNIGSKTVHWYQQKPGQAPVLVIYYDSDRPSGIPERFSGSNSGNTATLTISRVEAGDEADYYCQVWDSSSDHRVFGGGTKLTVLGSRGGGGSGGGGSGGGGSLEMAQVQLQESGPGLVKPSETLSLTCNVSGYSISSGYFWGWIRQPPGKGLEWIGSIYHSRSTYYNPSLKSRVTISVDTSKNQFSLKLNSVTAADTAVYYCARGYGYFDYWGQGTLVTVSSTSGQAGQHHHHHHGAYPYDVPDYAS | no binding
ET200-106 (scFv, screened as phage clone; entry is VL-linker-VH-His tag-HA tag) scFv: SYELTQPPAASGTPGQRVTISCSGGVSNIGSGALNWYQQLPGTAPKLLIYSYNQRPSGVSDRFSGSRSATSASLAISGLQSEDEADYYCATWDDSVNGWVFGGGTKLTVLGSRGGGGSGGGGSGGGGSLEMAEVQLVESGAEVKKPGDSVKVSCKPSGYNFLNYGINWVRQAPGQGLEWMGWISTYTGNTNYAQKLQGRVTFTTDTSTSTAYMEMRSLRSDDTAVYYCARQQGGGWYDVWGQGTLVTVSSTSGQAGQHHHHHHGAYPYDVPDYAS | no binding
